system: Leishmania donovani; assay: Leishmania intramacrophage assay; format: functional, organism-based; set-up: scale not given: in the data most compounds retested in dose-response had high values; details: 30.3 µM; […]
Out of some 69,000 compounds screened, about 1,000 (1.4%) showed an effect of 50% or more. The sample holds strong results, similar compounds and a random draw of the others, so the mix is not that of the screen.

molecule: CC1(C)Cc2c(cnn2-c2ccccc2)C(NC2CCSCC2)C1 (configuration not stated)
Percent Effect (%): 17.91
//
molecule: Cn1ncc2c(N3CCS(=O)(=O)CC3)nc(-c3cccnc3)nc21
Percent Effect (%): 31.77
//
molecule: Cc1cc(N(C)C)nc(C2(C)CCCN2C(=O)c2ccn(C)n2)n1 (configuration not stated)
Percent Effect (%): 1.341
//
molecule: [O-][S+](Cc1c(F)cccc1Cl)Cc1nnnn1C1CC1 (configuration not stated)
Percent Effect (%): -31.87
//
molecule: Cc1nn(C)c(C)c1-c1ccnc(N(C)Cc2noc(C(C)C)n2)n1
Percent Effect (%): 46.51
//
molecule: CC[C@@H](C)[C@H](NC(=O)CCn1cc(C(C)=O)c2ccccc21)C(=O)O
Percent Effect (%): 56.09
//
molecule: CNC(=O)c1sccc1N(C)S(=O)(=O)c1ccc(Cl)cc1
Percent Effect (%): 77.15
//
molecule: Cc1nn(C)c2nc(N3CCCC3c3nccs3)sc12 (configuration not stated)
Percent Effect (%): 4.253
//
molecule: O=c1[nH]cc(N2CCOCC2)c(=O)[nH]1
Percent Effect (%): -12.54
//
molecule: CO[C@H]1CO[C@@]2(CCCN(C(=O)N(C)C)C2)C1
Percent Effect (%): 25.22
//
molecule: C[C@@H]1CN(C2CCCCC2)CC[C@@]1(O)C1CCOCC1
Percent Effect (%): -0.4391
//
molecule: CC(C)N1CCC2(C=C(C(=O)N(C)C)c3ccccc32)CC1.O=C(O)C(F)(F)F
Percent Effect (%): -11.73
//
molecule: CNC(=O)C(NC(=O)CCc1cccc(OC2CCCC2)c1)C(C)C (configuration not stated)
Percent Effect (%): 1.65
//
molecule: Cn1ncc2c(N3CCC3)nc(-c3ccncc3)nc21
Percent Effect (%): 7.019
//
molecule: C[C@@H]1CN(C2CCN(c3ccccc3)CC2)CC[C@@]1(O)C1CCOCC1
Percent Effect (%): 22.22
//
molecule: CCN(C)c1ncnc2c1CCN(C(=O)c1cnccn1)CC2.O=C(O)C(F)(F)F
Percent Effect (%): 16.93
//
molecule: Cc1nsc(C(=O)NCCCc2ccccc2)n1
Percent Effect (%): 7.564
//
molecule: O=c1[nH]c2nc(NCC3CCCO3)ncc2c(=O)n1-c1cccc(F)c1 (configuration not stated)
Percent Effect (%): 20.13
//
molecule: O=c1[nH]c2nc(NC3CC3)ncc2c(=O)n1-c1ccc(F)cc1
Percent Effect (%): 24.05
//
molecule: COCC1CC2(CCN(Cc3nccn3C)CC2)CN1c1ncccn1.O=C(O)C(F)(F)F (configuration not stated)
Percent Effect (%): 11.88
//
molecule: O=C(c1ccc(S(=O)(=O)NCc2ccon2)cc1)N1CCOCC1
Percent Effect (%): 0.2735
//
molecule: O=C(O)Cc1cnc(-c2c(Cl)cccc2Cl)s1
Percent Effect (%): 39.96
//
molecule: CCCN(CCC)C(=O)c1cc(CN2CCC(O)CC2)on1
Percent Effect (%): 36.24
//
molecule: Cc1nn(C)c2nc(N3CCCCC3c3ccc(F)cc3)sc12 (configuration not stated)
Percent Effect (%): 66.72
//
molecule: Cc1ncsc1-c1nc(-c2cccc(CN3CCOCC3)c2)no1
Percent Effect (%): 19.67
//
molecule: Cc1ccc(C(=O)N(CC2CCCO2)c2ccncc2)o1 (configuration not stated)
Percent Effect (%): 23.81
//
molecule: O=C(NCCSC1CCCC1)c1cc(C2CC2)on1
Percent Effect (%): -5.763
//
molecule: Cc1cc(C(=O)Cn2cnnc2[S+](C)[O-])cc(C)c1F (configuration not stated)
Percent Effect (%): 9.03
//
molecule: CC(NCc1ccncc1)c1cc2c(cc1Br)OCCO2 (configuration not stated)
Percent Effect (%): 16.23
//
molecule: Cc1cc2c(cc1NC(=O)NC(C)(C)C)OCO2
Percent Effect (%): -22.07
//
molecule: C[C@@H]1CN(C2Cc3ccccc3C2)CC[C@@]1(O)C1CCOCC1
Percent Effect (%): 63.81
//
molecule: O=C(NC1CC1)c1ccn(COc2c(Cl)cccc2Cl)n1
Percent Effect (%): 26.41
//
molecule: COC(=O)NC1(C(=O)NCc2ccc(-c3ccn[nH]3)cc2)CCCC1
Percent Effect (%): 3.496
//
molecule: COCc1noc(Cn2ncn3cccc3c2=O)n1
Percent Effect (%): -34.29
//
molecule: Cc1ccsc1-c1cccc(-c2ccn(CC3CCNC3)n2)c1 (configuration not stated)
Percent Effect (%): 82.16
//
molecule: CCC(CNc1ncnc2oc(C)nc12)Cc1ccccc1 (configuration not stated)
Percent Effect (%): 45.54
//
molecule: CCN1CC[C@]2(CN(Cc3nccs3)C[C@H]2c2ccccc2)C1=O.O=C(O)C(F)(F)F
Percent Effect (%): 23.61
//
molecule: CC(c1nc(C2CC2)no1)N1CCN(CCS(C)(=O)=O)CC1 (configuration not stated)
Percent Effect (%): 50.3
//
molecule: CSCC[C@H](N)c1nnc(SCc2cc(C)ccc2C)o1.Cl
Percent Effect (%): 51.5
//
molecule: O=C(NCCSC1CCCC1)c1ccc(F)cc1F
Percent Effect (%): 24.13
//
molecule: CNC(=O)NCC(=O)N(C)C(c1ccc(Cl)cc1)c1cccnc1 (configuration not stated)
Percent Effect (%): -0.8032
//
molecule: CCCOc1ccccc1CCCNc1ncnc2oc(C)nc12
Percent Effect (%): 83.62
//
molecule: N#Cc1c2n(c3c(=O)[nH]cnc13)CCCCC2
Percent Effect (%): 19.13
//
molecule: N#Cc1cc(C(F)(F)F)ccc1NCC1CCS(=O)(=O)CC1
Percent Effect (%): 3.711
//
molecule: Cc1ccc(CN(C)Cc2cc(C3CC3)[nH]n2)c(O)n1
Percent Effect (%): 5.894
//
molecule: CN(CCn1cncc1-c1cnc(N2CCOCC2)nc1)C1CCCC1
Percent Effect (%): 22.37
//
molecule: CCOCC1CN(CC2CC2)Cc2nn(CC3CC3)cc21.O=C(O)C(F)(F)F (configuration not stated)
Percent Effect (%): -3.875

====

tested on: Leishmania donovani; test: Leishmania intramacrophage assay; format: functional, organism-based; design: scale not given: in the data most compounds retested in dose-response had high values; conditions: 30.3 µM; […]
Screen size: about 69,000 compounds; about 1,000 (1.4%) showed an effect of 50% or more. For the sample, strong results were picked, then their nearest neighbours and some compounds at random.

molecule: COc1ccccc1N1CC(NC(=O)Cn2cc(C)nn2)CC1=O (stereo not given)
units_symbol: %
Percent Effect: 4.572

molecule: Cc1noc(CN(Cc2cccc(C#N)c2)Cc2ccco2)n1
units_symbol: %
Percent Effect: -9.737

molecule: CCn1c(CC2CCN(C(=O)c3ccnn3C)CC2)n[nH]c1=O
units_symbol: %
Percent Effect: 15.21

molecule: Clc1cccc2c3c([nH]c12)CCN(Cc1cc2n(n1)CCNC2)C3
units_symbol: %
Percent Effect: 28.65

molecule: O=C(c1cc2c([nH]c1=O)CCC2)N1CCCCCC1c1ccncc1 (stereo not given)
units_symbol: %
Percent Effect: 26.35

molecule: COc1ccccc1C(=O)N1C[C@@H]2CCCCN(CC(N)=O)[C@@H]2C1
units_symbol: %
Percent Effect: -33.88

molecule: c1ccc2c3c([nH]c2c1)CN(Cc1cc2n(n1)CCNC2)CC3
units_symbol: %
Percent Effect: 19.37

molecule: CNC(=O)[C@H]1C[C@@H]2CN(S(=O)(=O)c3ccc(C)cc3)C[C@@H]2N1C.O=C(O)C(F)(F)F
units_symbol: %
Percent Effect: 7.67

molecule: O=C(C1CC=CC1)N1CCC2(CCC(=O)N2Cc2cccc(F)c2)CC1
units_symbol: %
Percent Effect: 15.71

molecule: CN(C)C(=O)c1cnc2n1CCN(Cc1ccsc1)C2.O=C(O)C(F)(F)F
units_symbol: %
Percent Effect: 24.8

====

tested on: Leishmania donovani; assay: Leishmania intramacrophage assay; format: functional, organism-based; design: scale not given: in the data most compounds retested in dose-response had high values; conditions: 30.3 µM; […]
The campaign covered roughly 69,000 compounds. About 1,000 (1.4%) showed an effect of 50% or more. For the sample, strong results were picked, then their nearest neighbours and some compounds at random.
recorded_endpoint: Percent Effect (%)

compound: Cn1cccc1-c1cc(C(=O)NCCCc2csc(N)n2)[nH]n1
recorded_endpoint: Percent Effect
endpoint_value: 54.27

compound: Cc1cccc(NC(=O)c2csc(NCC(C)C)n2)n1
recorded_endpoint: Percent Effect
endpoint_value: -8.581

compound: Cc1sc2nc(CCN)nc(N3CCS(=O)(=O)CC3)c2c1C
recorded_endpoint: Percent Effect
endpoint_value: 0.7518

compound: CCC(CNC(=O)c1ccccc1OC)N1CCc2ccccc2C1 (stereo not drawn)
recorded_endpoint: Percent Effect
endpoint_value: 6.323

compound: Cc1ccc(-c2cc(C(=O)NCCCc3csc(N)n3)[nH]n2)s1
recorded_endpoint: Percent Effect
endpoint_value: 19.81

compound: O=C1CCC(C(=O)NCCOc2cccc(Cl)c2Cl)CN1 (stereo not drawn)
recorded_endpoint: Percent Effect
endpoint_value: 18.68

compound: Fc1ccc(Sc2ccccc2CNC2=NCCN2)cc1.I
recorded_endpoint: Percent Effect
endpoint_value: 50.51

compound: CC(=O)N1CCN(CCNc2ncc(Br)cc2C)CC1
recorded_endpoint: Percent Effect
endpoint_value: 1.457

compound: CCn1c(C)cc(C(=O)NCc2cccc(S(=O)(=O)NC)c2)c1C
recorded_endpoint: Percent Effect
endpoint_value: -2.214

compound: CCc1cc(NCCCN(C)C2CCCC2)ncn1
recorded_endpoint: Percent Effect
endpoint_value: 22.72

compound: Cc1sc2nc(CCN)nc(N3CCN(S(C)(=O)=O)CC3)c2c1C
recorded_endpoint: Percent Effect
endpoint_value: -0.9568

compound: CCCc1nn(C2CCN(C3CC3)C2=O)c(=O)o1 (stereo not drawn)
recorded_endpoint: Percent Effect
endpoint_value: -13.56

compound: CCCn1cc(CN2CCCC2c2nccc(CN(C)C)n2)cn1 (stereo not drawn)
recorded_endpoint: Percent Effect
endpoint_value: -4.658

compound: Cc1nc(-c2ccc(S(=O)(=O)N3CCOCC3)cc2)co1
recorded_endpoint: Percent Effect
endpoint_value: 23.37

compound: CC(CCN1CCC(n2cc(CCO)nn2)CC1)c1ccccc1 (stereo not drawn)
recorded_endpoint: Percent Effect
endpoint_value: 17.91

compound: O=C(NC1CCOCC1)c1cccc(C2CCCNC2)c1 (stereo not drawn)
recorded_endpoint: Percent Effect
endpoint_value: -13.02

compound: COCc1noc(-c2cc(Cl)c3c(c2)OCO3)n1
recorded_endpoint: Percent Effect
endpoint_value: -15.75

compound: CCc1nc(CN(C)CC(=O)NC(C)C)cs1
recorded_endpoint: Percent Effect
endpoint_value: 35.21

compound: I.c1ccc(Sc2ccc3c(c2)OCO3)c(CNC2=NCCN2)c1
recorded_endpoint: Percent Effect
endpoint_value: 21.74

compound: Cc1sc2nc(CCN)nc(N3CCC(N4CCCC4)CC3)c2c1C
recorded_endpoint: Percent Effect
endpoint_value: 27.1

compound: COc1nn(C)c2c1CCCN(C(=O)c1cccc3cccnc13)C2.O=C(O)C(F)(F)F
recorded_endpoint: Percent Effect
endpoint_value: 75.35

compound: COc1ccc(CN2C[C@@H]3CC[C@H](C2)N(Cc2snnc2C)C3)cc1
recorded_endpoint: Percent Effect
endpoint_value: -20.42

compound: CC(NCCN1CCC(N(C)C)CC1)c1ccc(Cl)s1 (stereo not drawn)
recorded_endpoint: Percent Effect
endpoint_value: 43.03

compound: Cc1ccccc1CNCc1cc(Cl)ccc1O
recorded_endpoint: Percent Effect
endpoint_value: -18.5

compound: COc1ccc(CN2CCCCC2c2n[nH]cc2-c2cc(C)no2)cc1.Cl (stereo not drawn)
recorded_endpoint: Percent Effect
endpoint_value: -16.67

compound: COc1nn(C)c2c1CCCN(C(=O)c1ccc3ccccc3n1)C2.O=C(O)C(F)(F)F
recorded_endpoint: Percent Effect
endpoint_value: -11.56

compound: CN1C(=O)COc2cc(NC(=O)CCc3nc4cccnc4[nH]3)ccc21
recorded_endpoint: Percent Effect
endpoint_value: 33.08

compound: CSc1ccc(-c2nc(CN3CCC(CN)C3)c(C)o2)cc1 (stereo not drawn)
recorded_endpoint: Percent Effect
endpoint_value: 98.64

compound: Cc1ccc(-c2cc(C(=O)NCCCc3csc(N)n3)[nH]n2)o1
recorded_endpoint: Percent Effect
endpoint_value: -46.01

compound: COc1nn(C)c2c1CCCN(C(=O)c1cccc(C)n1)C2.O=C(O)C(F)(F)F
recorded_endpoint: Percent Effect
endpoint_value: 4.327

compound: COCCc1noc(C2CCN(S(=O)(=O)c3cccs3)CC2)n1
recorded_endpoint: Percent Effect
endpoint_value: 57.18

compound: Cc1cnn(CCNCc2c(C)nn(-c3ccccc3)c2C)c1
recorded_endpoint: Percent Effect
endpoint_value: -2.378

compound: CSc1ccc(-c2nc(CN3CCC(C(N)=O)CC3)c(C)o2)cc1
recorded_endpoint: Percent Effect
endpoint_value: -4.149

compound: CCn1ccc(CN(C)C(=O)CSc2nnc(N)s2)n1
recorded_endpoint: Percent Effect
endpoint_value: 54.38

compound: CSc1ccc(-c2nc(CN3CCC(NC(C)=O)CC3)c(C)o2)cc1
recorded_endpoint: Percent Effect
endpoint_value: 13.21

compound: CNCc1cn(C2CCN(CCC(C)c3ccccc3)CC2)nn1 (stereo not drawn)
recorded_endpoint: Percent Effect
endpoint_value: 69.72

compound: CCCc1nn(C2CCN(C(C)C)C2=O)c(=O)o1 (stereo not drawn)
recorded_endpoint: Percent Effect
endpoint_value: 51.41

compound: O=C(Nc1ccccn1)c1csc(NC2CCCC2)n1
recorded_endpoint: Percent Effect
endpoint_value: -23.02

compound: COc1ccc(CN(C)C(=O)CSc2nnc(N)s2)c(OC)c1OC
recorded_endpoint: Percent Effect
endpoint_value: 28.05

compound: CCc1cc(NCCCOC2CCN(C)CC2)ncn1
recorded_endpoint: Percent Effect
endpoint_value: -6.301

compound: Cc1cnc(NC(=O)c2csc(NCC(C)C)n2)s1
recorded_endpoint: Percent Effect
endpoint_value: 62.13

compound: CC(NCCN1CCC(N(C)C)CC1)c1ccc(F)cc1N(C)C (stereo not drawn)
recorded_endpoint: Percent Effect
endpoint_value: 15.55

compound: Cc1cc(Br)cnc1NCCN1CCC(N(C)C)CC1
recorded_endpoint: Percent Effect
endpoint_value: 96.65

compound: NC(=O)c1cccc(CCNCc2cnc(-c3cccs3)s2)c1
recorded_endpoint: Percent Effect
endpoint_value: 8.667

compound: CCOc1ccc(Cl)c(C(=O)NC(Cc2ccccc2)C(N)=O)n1 (stereo not drawn)
recorded_endpoint: Percent Effect
endpoint_value: 6.553

compound: COC1CCN(CCNc2ncc(Br)cc2C)CC1
recorded_endpoint: Percent Effect
endpoint_value: -8.998

compound: COc1ccnc(CN(C)C(=O)CSc2nnc(N)s2)c1
recorded_endpoint: Percent Effect
endpoint_value: 23.55

compound: O=C(CCc1nc2cccnc2[nH]1)Nc1ccc2c(c1)NC(=O)CO2
recorded_endpoint: Percent Effect
endpoint_value: 20.44
